log10(CC50 at 120 h) values for the molecules below.
- assay-remarks: Cytotoxicity against human HepG2 cells assessed as reduction in cell viability after 5 days by XTT assay
- Format: cell-based
Heads up, the numbers here are log10 of CC50 at 120 h in µM units.

Look over these answered cases.
CC(C)(C)NC(=O)[C@@H]1C[C@@H]2CCCC[C@@H]2CN1C[C@@H](O)[C@H](Cc1ccccc1)NC(=O)[C@H](CC(N)=O)NC(=O)c1ccc2ccccc2n1; 1.09
COC(=O)N[C@H](C(=O)N[C@@H](Cc1ccccc1)[C@@H](O)CN(Cc1ccc(-c2ccccn2)cc1)NC(=O)[C@@H](NC(=O)OC)C(C)(C)C)C(C)(C)C; 1.42
CCOP(=O)(COc1ccc(C[C@H](NC(=O)O[C@H]2CO[C@H]3OCC[C@H]32)[C@H](O)CN(CC(C)C)S(=O)(=O)c2ccc(OC)cc2)cc1)OCC; 1.79
CC(C)CN(C[C@@H](O)[C@H](Cc1ccccc1)NC(=O)O[C@H]1CCOC1)S(=O)(=O)c1ccc(N)cc1; 1.99
Cc1c(O)cccc1C(=O)N[C@@H](CSc1ccccc1)[C@H](O)CN1C[C@H]2CCCC[C@H]2C[C@H]1C(=O)NC(C)(C)C; 0.87
CC(C)(C)NC(=O)[C@@H]1CN(Cc2cccnc2)CCN1C[C@@H](O)C[C@@H](Cc1ccccc1)C(=O)N[C@H]1c2ccccc2C[C@H]1O; 1.87
CC(C)CN(C[C@@H](O)[C@H](Cc1ccccc1)NC(=O)O[C@H]1CO[C@H]2OCC[C@H]21)S(=O)(=O)c1ccc(N)cc1; 1.98

Entry under test: Cc1cccc(C)c1OCC(=O)N[C@@H](Cc1ccccc1)[C@@H](O)C[C@H](Cc1ccccc1)NC(=O)[C@H](C(C)C)N1CCCNC1=O . Its log10(CC50 at 120 h) was 1.44

* * *

- assay-remarks: Oral bioavailability in Beagle dog at 10 mg/kg in presence of 10 mg/kg COBI
- Format: ADME, organism-based, Canis lupus familiaris
- measurement-context: in vivo
attribute-measured: bioavailability (%)
Your answer is read as %, so omit the unit and give the number.

Entry under test: CCOP(=O)(COc1ccc(C[C@H](NC(=O)O[C@H]2CO[C@H]3OCC[C@H]32)[C@H](O)CN(CC(C)C)S(=O)(=O)c2ccc(OC)cc2)cc1)OCC . Its bioavailability was 100

* * *

EC50 values for the compounds below.
- Test system: Human immunodeficiency virus 1
- assay-remarks: Antiviral activity against wild type HIV1 3B infected in human MT2 cells assessed as virus-induced cytopathic effect after 5 days by XTT assay
- Format: functional, organism-based
- measurement-context: Human immunodeficiency virus 1, 3B, MT2, 120 h
Your answer is read as nM, so omit the unit and give the number.

Look over these answered cases.
CC(C)(C)NC(=O)[C@@H]1C[C@@H]2CCCC[C@@H]2CN1C[C@@H](O)[C@H](Cc1ccccc1)NC(=O)[C@H](CC(N)=O)NC(=O)c1ccc2ccccc2n1; 13.6
CC(C)CN(C[C@@H](O)[C@H](Cc1ccccc1)NC(=O)O[C@H]1CO[C@H]2OCC[C@H]21)S(=O)(=O)c1ccc(N)cc1; 2.3
CCOP(=O)(CCc1ccc(C[C@H](NC(=O)O[C@H]2CO[C@H]3OCC[C@H]32)[C@H](O)CN(CC(C)C)S(=O)(=O)c2ccc(OC)cc2)cc1)OCC; 2.1
CC(C)(C)NC(=O)[C@@H]1CN(Cc2cccnc2)CCN1C[C@@H](O)C[C@@H](Cc1ccccc1)C(=O)N[C@H]1c2ccccc2C[C@H]1O; 12.4
CCOP(=O)(OCC)c1ccc(C[C@H](NC(=O)O[C@H]2CO[C@H]3OCC[C@H]32)[C@H](O)CN(CC(C)C)S(=O)(=O)c2ccc(OC)cc2)cc1; 7.5

Entry under test: CCOP(=O)(COc1ccc(C[C@H](NC(=O)O[C@H]2CO[C@H]3OCC[C@H]32)[C@H](O)CN(CC(C)C)S(=O)(=O)c2ccc(OC)cc2)cc1)OCC . Its EC50 was 3.5

* * *

- assay-remarks: Cytotoxicity against human MT2 cells assessed as reduction in cell viability after 5 days by XTT assay
- Type: cell-based
attribute-measured: CC50 at 120 h (µM)
Your answer is read as µM, so omit the unit and give the number.

Look over these answered cases.
Cc1cccc(C)c1OCC(=O)N[C@@H](Cc1ccccc1)[C@@H](O)C[C@H](Cc1ccccc1)NC(=O)[C@H](C(C)C)N1CCCNC1=O; 67.9
CC(C)(C)NC(=O)[C@@H]1C[C@@H]2CCCC[C@@H]2CN1C[C@@H](O)[C@H](Cc1ccccc1)NC(=O)[C@H](CC(N)=O)NC(=O)c1ccc2ccccc2n1; 32.3

Entry under test: COC(=O)N[C@H](C(=O)N[C@@H](Cc1ccccc1)[C@@H](O)CN(Cc1ccc(-c2ccccn2)cc1)NC(=O)[C@@H](NC(=O)OC)C(C)(C)C)C(C)(C)C . Its CC50 at 120 h was 79.8

Entry under test: Cc1c(O)cccc1C(=O)N[C@@H](CSc1ccccc1)[C@H](O)CN1C[C@H]2CCCC[C@H]2C[C@H]1C(=O)NC(C)(C)C . Its CC50 at 120 h was 19.1

* * *

Listed here: compounds with reported pKi for Protease (Human immunodeficiency virus 1).
Please treat pKi as minus the base-10 logarithm of the molar concentration.

COc1ccc(S(=O)(=O)N(CC(C)C)C[C@@H](O)[C@H](Cc2ccc(OCP(=O)(OC)OC)cc2)NC(=O)O[C@H]2CO[C@H]3OCC[C@H]32)cc1; 10.74
CCOP(=O)(Cc1ccc(C[C@H](NC(=O)O[C@H]2CO[C@H]3OCC[C@H]32)[C@H](O)CN(CC(C)C)S(=O)(=O)c2ccc(OC)cc2)cc1)OCC; 11.08
CCOP(=O)(CCc1ccc(C[C@H](NC(=O)O[C@H]2CO[C@H]3OCC[C@H]32)[C@H](O)CN(CC(C)C)S(=O)(=O)c2ccc(OC)cc2)cc1)OCC; 11.04
COc1ccc(S(=O)(=O)N(CC(C)C)C[C@@H](O)[C@H](Cc2ccc(O)cc2)NC(=O)O[C@H]2CO[C@H]3OCC[C@H]32)cc1; 11.28

Lab note: next compound to report on.
Entry under test: CCOP(=O)(COc1ccc(C[C@H](NC(=O)O[C@H]2CO[C@H]3OCC[C@H]32)[C@H](O)CN(CC(C)C)S(=O)(=O)c2ccc(OC)cc2)cc1)OCC . Its pKi was 11.09

* * *

- Tested on: Human immunodeficiency virus 1
- assay-remarks: Fold resistance, ratio of EC50 for HIV1 3B harboring protease G48V/V82A/I84V/L90M mutant infected in human MT2 cells to EC50 for wild type HIV1 3B infected in human MT2 cells
- Format: functional
attribute-measured: Ratio EC50
// no unit string in output, number only

Look over these answered cases.
CC(C)CN(C[C@@H](O)[C@H](Cc1ccccc1)NC(=O)O[C@H]1CCOC1)S(=O)(=O)c1ccc(N)cc1; 20
Cc1c(O)cccc1C(=O)N[C@@H](CSc1ccccc1)[C@H](O)CN1C[C@H]2CCCC[C@H]2C[C@H]1C(=O)NC(C)(C)C; 30.6
COC(=O)N[C@H](C(=O)N[C@@H](Cc1ccccc1)[C@@H](O)CN(Cc1ccc(-c2ccccn2)cc1)NC(=O)[C@@H](NC(=O)OC)C(C)(C)C)C(C)(C)C; 102

Lab note: next compound to report on.
Human immunodeficiency virus 1 Ratio EC50 of CCOP(=O)(COc1ccc(C[C@H](NC(=O)O[C@H]2CO[C@H]3OCC[C@H]32)[C@H](O)CN(CC(C)C)S(=O)(=O)c2ccc(OC)cc2)cc1)OCC is 0.6

* * *

- Tested on: Human immunodeficiency virus 1
- assay-remarks: Fold resistance, ratio of EC50 for HIV1 3B harboring protease G48V/I54V/V82S mutant infected in human MT2 cells to EC50 for wild type HIV1 3B infected in human MT2 cells
- Assay type: functional
attribute-measured: Ratio EC50
// no unit string in output, number only

Look over these answered cases.
CCOP(=O)(COc1ccc(C[C@H](NC(=O)O[C@H]2CO[C@H]3OCC[C@H]32)[C@H](O)CN(CC(C)C)S(=O)(=O)c2ccc(OC)cc2)cc1)OCC; 0.1
Cc1c(O)cccc1C(=O)N[C@@H](CSc1ccccc1)[C@H](O)CN1C[C@H]2CCCC[C@H]2C[C@H]1C(=O)NC(C)(C)C; 25.4
CC(C)CN(C[C@@H](O)[C@H](Cc1ccccc1)NC(=O)O[C@H]1CCOC1)S(=O)(=O)c1ccc(N)cc1; 0.9

Lab note: next compound to report on.
Human immunodeficiency virus 1 Ratio EC50 of COC(=O)N[C@H](C(=O)N[C@@H](Cc1ccccc1)[C@@H](O)CN(Cc1ccc(-c2ccccn2)cc1)NC(=O)[C@@H](NC(=O)OC)C(C)(C)C)C(C)(C)C is 127

* * *

- assay-remarks: Intrinsic clearance in human liver microsomes in presence of 1 uM COBI
- Type: ADME
- measurement-context: liver microsomes, with COBI 1 uM, read-out: CLH
microsomal CLint values for the compounds below.
Your answer is read as µL/min/mg, so omit the unit and give the number.

Look over these answered cases.
Cc1cccc(C)c1OCC(=O)N[C@@H](Cc1ccccc1)[C@@H](O)C[C@H](Cc1ccccc1)NC(=O)[C@H](C(C)C)N1CCCNC1=O; 2.7
CC(C)CN(C[C@@H](O)[C@H](Cc1ccccc1)NC(=O)O[C@H]1CO[C@H]2OCC[C@H]21)S(=O)(=O)c1ccc(N)cc1; 0.9

Lab note: next compound to report on.
Entry under test: CCOP(=O)(COc1ccc(C[C@H](NC(=O)O[C@H]2CO[C@H]3OCC[C@H]32)[C@H](O)CN(CC(C)C)S(=O)(=O)c2ccc(OC)cc2)cc1)OCC . Its microsomal CLint was 1

Provenance of the data: ChEMBL document CHEMBL3217662
